Each item that follows carries a reported binding signal.
Assayed System: human chorionic gonadotropin (hCG) heterodimer (Homo sapiens, UniProt P01215;P0DN86 P01215:25-116,P0DN86:21-165)
Sequence (P01215 25-116, chain 1 of 2, other chains not shown): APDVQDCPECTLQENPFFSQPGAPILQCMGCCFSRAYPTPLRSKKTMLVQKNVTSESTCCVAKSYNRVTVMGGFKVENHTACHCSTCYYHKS
Experimental Protocol: filter
Condition: tags: Calbiochem or Vitro Diagnostics (14,000 IU/mg); chain copies: alpha/beta heterodimer (stated); label: 32P

[
  {
    "Binder": "Class 1 ligand 28 (ssRNA, 2'-F all pyrimidines) RNA: GGGAGACAAGAAUAAACGCUCAAACAGCGAUUGAACGAUCCUUUCAGCUGAUGGGUACGGGAUUCGACAGGAGGCUCACAACAGGC",
    "binding signal": "0.58 % bound at 100 nM"
  },
  {
    "Binder": "Class 1 ligand 26 (ssRNA, 2'-F all pyrimidines) RNA: GGGAGACAAGAAUAAACGCUCAAUUUGGAAGAUCCCUGAGUCUCGUUGGUCGUUGAACGAUCCUUCGACAGGAGGCUCACAACAGGC",
    "binding signal": "3.34 % bound at 100 nM"
  },
  {
    "Binder": "Class 1 ligand 8 (ssRNA, 2'-F all pyrimidines) RNA: GGGAGACAAGAAUAAACGCUCAAGUGCCCUGUUAUCUUCCUCGAUCGAUUGAACGAUCCUUUCGACAGGAGGCUCACAACAGGC",
    "binding signal": "0.98 % bound at 100 nM"
  },
  {
    "Binder": "Class 1 ligand 10 (ssRNA, 2'-F all pyrimidines) RNA: GGGAGACAAGAAUAAACGCUCAAUUCGGAAGAUCACGGAGUCUCGUUGGUCGUUGAACGAUCCUUCGACAGGAGGCUCACAACAGGC",
    "binding signal": "3.59 % bound at 100 nM"
  },
  {
    "Binder": "Class 1 ligand 49 (ssRNA, 2'-F all pyrimidines) RNA: GGGAGACAAGAAUAAACGCUCAAUUUGGAAGAUCCCGAGAUCUCGUUGGUCGUUGAACGAUCCUUCGACAGGAGGCUCACAACAGGC",
    "binding signal": "3.77 % bound at 100 nM"
  }
]
